microsomal CLint at 1 uM overview
- method summary: Metabolic stability in human hepatic microsome
- Format: in vitro ADME
- condition label: human, microsomes, pH 7.4, CL NADPH(+)
Starred links: 1 amine or outer side, 2 acyl side, 3 side chain; linkers in the order of their positions; H or OH if unused. Positions of bridges follow the written chain, without caps; N, C: chain ends. Non-standard residues stand in square brackets, D forms with d. Residues, ends and D or L forms follow the SMILES beside them. *: point of attachment. NMeF = CN[C@@H](Cc1ccccc1)C(=O)O; NMeI = CC[C@H](C)[C@H](NC)C(=O)O; NMeβAla = CN(CCC(=O)[*:2])[*:1]; NMeL = CN[C@@H](CC(C)C)C(=O)O; NMeA = CN[C@@H](C)C(=O)O; Piperidide = C1CCN(*)CC1

compound	units of measure	microsomal CLint at 1 uM
CC(C)C[C@H]1C(=O)N[C@@H](C(C)C)C(=O)N(C)[C@@H](Cc2ccccc2)C(=O)N(C)[C@@H](CC(C)C)C(=O)N(C)[C@@H](CC(C)C)C(=O)N[C@H](C(=O)N(C)[C@@H](Cc2ccccc2)C(=O)N(C)[C@@H](Cc2ccccc2)C(=O)N[C@@H](C)C(=O)N2CCCCC2)CC(=O)N(C)CCC(=O)N[C@@H]([C@@H](C)O)C(=O)N(C)[C@@H](C)C(=O)N1C [DP-397] ([NMeβAla]T[NMeA][NMeL]V[NMeF][NMeL][NMeL]D[NMeF][NMeF]A-Piperidide; lactam N-9)	µL/min/mg	92
CC(C)C[C@@H]1NC(=O)[C@H](Cc2ccccc2)N(C)C(=O)[C@H]([C@@H](C)O)NC(=O)[C@H](Cc2ccccc2)N(C)C(=O)[C@H](C)N(C)C(=O)[C@H](C)N(C)C(=O)C[C@@H](C(=O)N2CCCCC2)NC(=O)[C@@H]2CCCN2C1=O [DP-687] ([NMeA][NMeA][NMeF]T[NMeF]LPD-Piperidide; lactam N-8)	µL/min/mg	10
CC[C@H](C)[C@H]1C(=O)N[C@@H](Cc2ccccc2)C(=O)N[C@@H](Cc2ccccc2)C(=O)N2CCC[C@H]2C(=O)N[C@@H]([C@@H](C)O)C(=O)N(C)[C@@H](CC(C)C)C(=O)N[C@H](C(=O)N2CCCCC2)CC(=O)N[C@@H](C)C(=O)N[C@@H](C)C(=O)N(C)[C@@H](CC(C)C)C(=O)N[C@@H](CC(C)C)C(=O)N1C [DP-29] (AA[NMeL]L[NMeI]FFPT[NMeL]D-Piperidide; lactam N-11)	µL/min/mg	158

---

- method summary: Metabolic stability in human hepatic microsome
- Assay type: in vitro ADME
- condition label: human, microsomes, pH 7.4, CL NADPH(+)
Positions of bridges follow the written chain, without caps; N, C: chain ends. Non-standard residues stand in square brackets, D forms with d. Residues, ends and D or L forms follow the SMILES beside them. ξ: configuration not given here. *: point of attachment. NMeF = CN[C@@H](Cc1ccccc1)C(=O)O; NMeI = CC[C@H](C)[C@H](NC)C(=O)O; NMeL = CN[C@@H](CC(C)C)C(=O)O; NMeA = CN[C@@H](C)C(=O)O; Piperidide = C1CCN(*)CC1; ξL = CC(C)CC(N)C(=O)O; Sar = CNCC(=O)O; tBu = CC(C)(C)*

compound	microsomal CLint at 1 uM, µL/min/mg
CC[C@H](C)[C@@H]1NC(=O)[C@H](Cc2ccccc2)NC(=O)[C@H](C)NC(=O)C[C@@H](C(=O)N2CCCCC2)NC(=O)[C@H](CC(C)C)NC(=O)[C@H](CC(C)C)NC(=O)[C@H](C(C)C)NC(=O)[C@H](C)N(C)C(=O)[C@H](Cc2ccccc2)NC(=O)CNC(=O)[C@H]([C@@H](C)O)NC(=O)[C@H](CC(C)C)NC(=O)[C@@H]2CCCN2C1=O [DP-19] (AFIPLTGF[NMeA]VLLD-Piperidide; lactam N-13)	80
CC[C@H](C)[C@H]1C(=O)N[C@@H](CC(C)C)C(=O)N2CCC[C@H]2C(=O)N[C@@H]([C@@H](C)O)C(=O)N(C)[C@@H](C)C(=O)N[C@@H](Cc2ccccc2)C(=O)N[C@H](C(=O)N2CCCCC2)CC(=O)N(C)[C@@H](C)C(=O)N[C@@H](Cc2ccccc2)C(=O)N(C)[C@@H](CC(C)C)C(=O)N[C@@H](COC(C)(C)C)C(=O)NCC(=O)N1C [DP-57] ([NMeA]F[NMeL]S(tBu)G[NMeI]LPT[NMeA]FD-Piperidide; lactam N-12)	23
CC[C@H](C)[C@H]1C(=O)N(C)[C@@H](Cc2ccccc2)C(=O)NCC(=O)N(C)[C@@H](Cc2ccccc2)C(=O)N(C)[C@@H](CC(C)C)C(=O)N(C)[C@@H](CC(C)C)C(=O)N[C@H](C(=O)N2CCCCC2)CC(=O)N[C@H](C(C)C)C(=O)N[C@@H]([C@@H](C)O)C(=O)N(C)[C@@H](C)C(=O)N1C [DP-72] ([dV]T[NMeA][NMeI][NMeF]G[NMeF][NMeL][NMeL]D-Piperidide; lactam N-10)	58
CC(C)C[C@@H]1NC(=O)[C@H](CCC(=O)O)NC(=O)[C@@H]2CCCN2C(=O)[C@H](CC(C)C)NC(=O)[C@H](CC(C)C)N(C)C(=O)[C@H](Cc2ccccc2)NC(=O)[C@H](C)N(C)C(=O)[C@H](CC(C)C)N(C)C(=O)[C@H](Cc2ccccc2)NC(=O)CN(C)C(=O)C[C@@H](C(=O)N(C)[C@@H](Cc2ccccc2)C(=O)N[C@@H](C)C(=O)N2CCCCC2)NC1=O [DP-595] ([Sar]F[NMeL][NMeA]F[NMeL]LPELD[NMeF]A-Piperidide; lactam N-11)	9
CC[C@H](C)[C@@H]1NC(=O)[C@H](C)NC(=O)C[C@@H](C(=O)N2CCCCC2)NC(=O)[C@@H]2CCCN2C(=O)C(CC(C)C)NC(=O)[C@H](Cc2ccccc2)N(C)C(=O)[C@H]([C@@H](C)O)NC(=O)[C@H](Cc2ccccc2)N(C)C(=O)[C@H](C)N(C)C1=O (some centres unmarked) [DP-34] (AI[NMeA][NMeF]T[NMeF][ξL]PD-Piperidide; lactam N-9)	102

---

// values below are reported Papp at 18 hours, 50 µM
- method summary: PAMPA (parallel artificial membrane permeability assay)
- Format: in vitro ADME
- condition label: PAMPA; membrane permeation rate (Pe); 50 mM MOPSO buffer pH 6.5 with 5.0% glycocholic acid, 37° C., 18 hours; read-out: iPAMPA Pe
Starred links: 1 amine or outer side, 2 acyl side, 3 side chain; linkers in the order of their positions; H or OH if unused. Positions of bridges follow the written chain, without caps; N, C: chain ends. Non-standard residues stand in square brackets, D forms with d. Residues, ends and D or L forms follow the SMILES beside them. *: point of attachment. Phe(4-(CH2)5CO) = O=C([C@H](Cc1ccc(CCCCCC(=O)[*:3])cc1)N[*:1])[*:2]; NMeF = CN[C@@H](Cc1ccccc1)C(=O)O; NMeI = CC[C@H](C)[C@H](NC)C(=O)O; NMeβAla = CN(CCC(=O)[*:2])[*:1]; NMeL = CN[C@@H](CC(C)C)C(=O)O; NMeV = CN[C@H](C(=O)O)C(C)C; NMeA = CN[C@@H](C)C(=O)O; Piperidide = C1CCN(*)CC1; β3hA = C[C@H](N)CC(=O)O; Sar = CNCC(=O)O; tBu = CC(C)(C)*

compound	Papp at 18 hours, 50 µM, ×10⁻⁶ cm/s
CC[C@H](C)[C@H]1C(=O)N[C@@H](COC(C)(C)C)C(=O)N(C)[C@@H](C(C)C)C(=O)N[C@@H](C)CC(=O)N(C)[C@@H](CC(C)C)C(=O)N(C)[C@@H](Cc2ccccc2)C(=O)N[C@@H](CC(C)C)C(=O)N(C)[C@@H](CC(C)C)C(=O)N[C@@H]([C@@H](C)O)C(=O)N(C)CC(=O)N1C [DP-821] (cyclo(L[NMeL]T[Sar][NMeI]S(tBu)[NMeV][β3hA][NMeL][NMeF]))	62
CC[C@H](C)[C@H]1C(=O)N(C)[C@@H](C)C(=O)N(C)[C@@H](CC(C)C)C(=O)N[C@@H](COC(C)(C)C)C(=O)N(C)[C@@H](CC(C)C)C(=O)N[C@H](C(=O)N2CCCCC2)CC(=O)N(C)[C@@H](C)C(=O)N(C)[C@@H](Cc2ccccc2)C(=O)N[C@@H](C)C(=O)N(C)[C@@H](CC(C)C)C(=O)N[C@@H]([C@@H](C)O)C(=O)N[C@@H](Cc2ccccc2)C(=O)N1C [DP-90] ([NMeA][NMeF]A[NMeL]TF[NMeI][NMeA][NMeL]S(tBu)[NMeL]D-Piperidide; lactam N-12)	9.1
CC(C)C[C@H]1C(=O)N[C@H](C(=O)N(C)[C@@H](Cc2ccccc2)C(=O)N[C@@H](C)C(=O)N2CCCCC2)CC(=O)N(C)CCC(=O)N[C@@H]([C@@H](C)O)C(=O)N(C)[C@@H](C)C(=O)N(C)[C@@H](CC(C)C)C(=O)N[C@@H](C(C)C)C(=O)N(C)[C@@H](Cc2ccccc2)C(=O)N[C@@H](Cc2ccccc2)C(=O)N1C [DP-379] ([NMeβAla]T[NMeA][NMeL]V[NMeF]F[NMeL]D[NMeF]A-Piperidide; lactam N-9)	41
CC(C)C[C@H]1C(=O)N[C@@H](COC(C)(C)C)C(=O)N(C)[C@@H](Cc2ccccc2)C(=O)N(C)[C@@H](C)C(=O)N[C@@H](Cc2ccccc2)C(=O)N(C)[C@@H](C(C)C)C(=O)N[C@H](C(=O)N2CCCCC2)Cc2ccc(cc2)CCCCCC(=O)N[C@@H]([C@@H](C)O)C(=O)NCC(=O)N1C [DP-848] (TG[NMeL]S(tBu)[NMeF][NMeA]F[NMeV][Phe(4-(CH2)5CO)]-Piperidide; lactam N-9)	30
CC[C@H](C)[C@@H]1NC(=O)[C@H](CC(C)C)N(C)C(=O)[C@H](Cc2ccccc2)NC(=O)CCN(C)C(=O)C[C@@H](C(=O)N2CCCCC2)NC(=O)[C@H](CC(C)C)NC(=O)[C@H](Cc2ccccc2)NC(=O)[C@H](Cc2ccccc2)N(C)C(=O)[C@H](CC(C)C)NC(=O)[C@H]([C@@H](C)O)NC1=O [DP-334] ([NMeβAla]F[NMeL]ITL[NMeF]FLD-Piperidide; lactam N-10)	20

Reference source for all entries: patent US9409952B2
